biological target: human TLR7 (Homo sapiens); assay: TLR7 inhibition reporter assay (HEK-Blue cells, SEAP reporter, gardiquimod stimulation); details: HEK-Blue cells overexpressing human TLR7, SEAP reporter, gardiquimod 7.5 μM
Sequence (Q9NYK1 27-1049): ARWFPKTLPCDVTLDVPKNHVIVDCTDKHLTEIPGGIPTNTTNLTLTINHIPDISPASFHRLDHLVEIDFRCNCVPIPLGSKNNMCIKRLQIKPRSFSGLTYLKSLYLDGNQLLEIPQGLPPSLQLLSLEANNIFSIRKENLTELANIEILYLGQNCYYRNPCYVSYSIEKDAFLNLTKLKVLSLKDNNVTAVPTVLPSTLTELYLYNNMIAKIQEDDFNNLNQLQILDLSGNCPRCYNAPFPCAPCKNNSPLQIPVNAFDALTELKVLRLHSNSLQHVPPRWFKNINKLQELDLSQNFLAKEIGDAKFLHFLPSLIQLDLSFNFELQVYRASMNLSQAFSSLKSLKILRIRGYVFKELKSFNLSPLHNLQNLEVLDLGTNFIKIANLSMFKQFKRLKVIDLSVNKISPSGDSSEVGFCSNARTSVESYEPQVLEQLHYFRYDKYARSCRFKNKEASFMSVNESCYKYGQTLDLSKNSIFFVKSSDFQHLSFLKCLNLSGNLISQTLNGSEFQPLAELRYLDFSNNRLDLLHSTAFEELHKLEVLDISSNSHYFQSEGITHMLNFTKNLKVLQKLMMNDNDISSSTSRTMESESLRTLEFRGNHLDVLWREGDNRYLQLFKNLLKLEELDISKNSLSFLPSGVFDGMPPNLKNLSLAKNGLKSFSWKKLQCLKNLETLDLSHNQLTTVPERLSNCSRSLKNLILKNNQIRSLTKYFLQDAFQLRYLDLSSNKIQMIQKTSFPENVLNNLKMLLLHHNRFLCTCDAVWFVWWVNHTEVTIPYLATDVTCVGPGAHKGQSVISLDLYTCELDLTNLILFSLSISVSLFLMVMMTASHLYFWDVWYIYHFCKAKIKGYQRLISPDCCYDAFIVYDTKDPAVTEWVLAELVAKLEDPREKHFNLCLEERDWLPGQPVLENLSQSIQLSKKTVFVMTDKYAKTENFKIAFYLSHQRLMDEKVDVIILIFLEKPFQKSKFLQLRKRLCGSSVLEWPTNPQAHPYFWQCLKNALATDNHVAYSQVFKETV
pIC50: −log10 of the molar value.
experimentalReadout: pIC50

Recorded pIC50, per entry:
> print(dat)
                                    compound  number
 1  Cc1cc(-c2[nH]c3ccc(C4CN(C)CCO4)cc3c2C(C)C)cn2ncnc12 (stereo not drawn) [Example 293]    8.70
 2  CNC(=O)CN1CC(c2ccc3[nH]c(-c4cn5ncnc5c(C)c4C)c(C(C)C)c3c2)C1    8.40
 3  Cc1cc(-c2[nH]c3ccc([C@@H]4C[C@H]4C(=O)NC4CC5CCN4CC5)cc3c2C(C)C)ccn1 (stereo partly drawn) [Example 460]    7.29
 4  Cc1c(-c2[nH]c3ccc(C4CCC(N)CC4)cc3c2C(C)C)cn2cnnc2c1C (stereo not drawn) [Example 516]    8.52
 5  COCCN1CC(c2ccc3[nH]c(-c4cc(C)c5ncnn5c4)c(C(C)C)c3c2)OCC1(C)C (stereo not drawn) [Example 382]    7.82
 6  CNC(=O)CN1CCCC(c2ccc3[nH]c(-c4cn5ncnc5c(C)c4C)c(C(C)C)c3c2)C1 (stereo not drawn) [Example 231]    8.05
 7  Cc1c(-c2[nH]c3ccc(C4CNC4)cc3c2C(C)C)cn2cnnc2c1C    7.24
 8  Cc1cc(-c2[nH]c3ccc(C4CCC(N5CCOCC5)CC4)cc3c2C(C)C)cn2ncnc12 (stereo not drawn) [Example 102]    9.64
 9  CNC1CCC(c2ccc3[nH]c(-c4cn5cnnc5c(C)c4C)c(C(C)C)c3c2)CC1 (stereo not drawn) [Example 530]    8.70
10  Cc1c(-c2[nH]c3ccc(C4CC5CN(CC6(C)COC6)CC5C4)cc3c2C(C)C)cn2cnnc2c1C (stereo not drawn)    8.30

[P] Cc1c(-c2[nH]c3ccc(C4CN(CC(C)(C)O)C4)cc3c2C(C)C)cn2ncnc2c1C
[Q] CNC(=O)CN1CCOC(c2ccc3[nH]c(-c4cc(C)nc(C)c4)c(C(C)C)c3c2)C1 (stereo not drawn) [Example 323]
[R] Cc1cc(-c2[nH]c3ccc(C4CCC(C(=O)N5CCCCC5)CC4)cc3c2C(C)C)cn2ncnc12 (single isomer, unassigned) [Example 159]
Query block: List from greatest to least pIC50. Show the ranking through the labels, in the order asked for.
Result block: P, Q, R

====

molecular target: human TLR9 (Homo sapiens, UniProt Q9NR96); experiment: TLR9 inhibition reporter assay (HEK-Blue cells, SEAP reporter, ODN2006 stimulation); conditions: HEK-Blue cells overexpressing human TLR9, SEAP reporter, ODN2006 5 nM
Sequence (Q9NR96 26-1032): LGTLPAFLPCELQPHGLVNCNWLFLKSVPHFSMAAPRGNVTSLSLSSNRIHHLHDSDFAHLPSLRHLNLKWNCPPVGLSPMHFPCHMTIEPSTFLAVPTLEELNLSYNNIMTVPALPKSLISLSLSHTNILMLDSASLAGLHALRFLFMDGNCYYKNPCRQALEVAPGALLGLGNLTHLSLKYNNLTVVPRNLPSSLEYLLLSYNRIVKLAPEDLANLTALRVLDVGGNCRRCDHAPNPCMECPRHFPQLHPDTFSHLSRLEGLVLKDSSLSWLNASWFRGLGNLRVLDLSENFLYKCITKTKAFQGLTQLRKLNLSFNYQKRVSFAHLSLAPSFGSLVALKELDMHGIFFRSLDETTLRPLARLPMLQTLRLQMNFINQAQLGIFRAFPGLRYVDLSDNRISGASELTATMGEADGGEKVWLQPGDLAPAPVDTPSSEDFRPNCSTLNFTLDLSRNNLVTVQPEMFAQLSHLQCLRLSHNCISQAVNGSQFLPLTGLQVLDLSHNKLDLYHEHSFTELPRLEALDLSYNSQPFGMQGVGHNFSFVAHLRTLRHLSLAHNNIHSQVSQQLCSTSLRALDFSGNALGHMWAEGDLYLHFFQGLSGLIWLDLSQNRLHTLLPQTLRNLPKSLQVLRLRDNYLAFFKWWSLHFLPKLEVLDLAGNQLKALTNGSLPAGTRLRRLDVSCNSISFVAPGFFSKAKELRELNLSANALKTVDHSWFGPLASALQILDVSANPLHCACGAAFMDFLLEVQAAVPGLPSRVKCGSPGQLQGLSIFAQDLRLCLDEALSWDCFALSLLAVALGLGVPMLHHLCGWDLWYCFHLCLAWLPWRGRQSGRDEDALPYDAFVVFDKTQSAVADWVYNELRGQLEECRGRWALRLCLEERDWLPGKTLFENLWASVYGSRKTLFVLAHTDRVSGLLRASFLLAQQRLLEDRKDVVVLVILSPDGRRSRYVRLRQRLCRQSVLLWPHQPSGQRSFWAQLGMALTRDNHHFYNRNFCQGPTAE
experimentalReadout: IC50 (µM)

Solved cases (5 shown):
> print(dat)
                                   compound  experimentalreadout  quantityunit  number
1  Cc1c(-c2[nH]c3ccc(C4CCC(NC5COC5)CC4)cc3c2C(C)C)cn2cnnc2c1C (centres unmarked) [Example 524]                 IC50            µM    11.1
2  COc1cc(-c2[nH]c3ccc(C4CCC(N(C)CC(F)F)CC4)cc3c2C(C)C)cn2ncnc12 (centres unmarked) [Example 81]                 IC50            µM    25.5
3  COc1cc(-c2[nH]c3ccc(C4CCCN(C(=O)CN(C)C)C4)cc3c2C(C)C)cn2ncnc12 (centres unmarked) [Example 191]                 IC50            µM    1.87
4  Cc1c(-c2[nH]c3ccc(C4CCC(NC5COC5)CC4)cc3c2C(C)C)cn2cnnc2c1C (centres unmarked) [Example 523]                 IC50            µM    2.72
5  COc1cc(-c2[nH]c3ccc(C4CC(N(C)C(=O)CN(C)C)C4)cc3c2C(C)C)cn2ncnc12 (centres unmarked) [Example 585]                 IC50            µM    2.81

[a] COc1cc(-c2[nH]c3ccc(C4CCC(N5CC(F)(F)C5)CC4)cc3c2C(C)C)cn2ncnc12 (centres unmarked) [Example 19]
[b] COc1cc(-c2[nH]c3ccc(C4CC(NC(=O)CN(C)C)C4)cc3c2C(C)C)cn2ncnc12 (centres unmarked) [Example 569]
[c] Cc1cc(-c2[nH]c3ccc(CCN4CCC(F)CC4)cc3c2C(C)C)cn(C)c1=O [Example 407]
Query block: // ascending sort on recorded IC50 Record the ranking as a list of labels in the requested order.
Result block: b, c, a
(b: 4.55 µM, c: 13.6 µM, a: 29.2 µM)

====

target: human TLR7 (Homo sapiens); assay: TLR7 inhibition reporter assay (HEK-Blue cells, SEAP reporter, gardiquimod stimulation); settings: HEK-Blue cells overexpressing human TLR7, SEAP reporter, gardiquimod 7.5 μM
pIC50: −log10 of the molar value.
experimentalReadout: pIC50

> print(dat)
                                   compound  number
1  Cc1c(-c2[nH]c3ccc(C4CCC(N(C)C)CC4)cc3c2C(C)C)cn2cnnc2c1C (stereo not shown) [Example 529]    7.92
2  COCCN1CC(c2ccc3[nH]c(-c4cn5cnnc5c(C)c4C)c(C(C)C)c3c2)C1 [Example 550]    7.77

[I] Cc1cc(-c2[nH]c3ccc(C4CN(CC(=O)N(C)C)CCO4)cc3c2C(C)C)cc(C)n1 (stereo not shown) [Example 326]
[II] Cc1cc(-c2[nH]c3ccc(C4CCCN(C(=O)C5(C)COC5)C4)cc3c2C(C)C)cc(C)n1 (stereo not shown) [Example 204]
Query block: Hello, I am sorting some records. Could you say if I or II has the smaller pIC50 value? Could you answer with the label of the item you picked?
Result block: I
(I: 7.12, II: 8.40)

====

target: human TLR9 (Homo sapiens); assay: TLR9 inhibition reporter assay (HEK-Blue cells, SEAP reporter, ODN2006 stimulation); conditions: HEK-Blue cells overexpressing human TLR9, SEAP reporter, ODN2006 5 nM
pIC50: −log10 of the molar value.
experimentalReadout: pIC50

> print(dat)
                                   compound  number
1  Cc1c(-c2[nH]c3ccc(C4CC(NC(=O)CN(C)C)C4)cc3c2C(C)C)cn2ncnc2c1C (stereo not shown) [Example 573]    4.90

[I] Cc1cc(-c2[nH]c3ccc(C4CCC(O)(C(F)(F)F)CC4)cc3c2C(C)C)cc(C)n1 (stereo not shown)
[II] CCN(C)C1CCC(c2ccc3[nH]c(-c4cc(OC)c5ncnn5c4)c(C(C)C)c3c2)CC1 (single isomer, unassigned) [Example 65]
Query block: Just tell me: smaller pIC50 value, I or II ? Respond using the label that marks the chosen record.
Result block: I

====

Molecular target: human TLR8 (Homo sapiens, UniProt Q9NR97)
Sequence (Q9NR97 27-1041): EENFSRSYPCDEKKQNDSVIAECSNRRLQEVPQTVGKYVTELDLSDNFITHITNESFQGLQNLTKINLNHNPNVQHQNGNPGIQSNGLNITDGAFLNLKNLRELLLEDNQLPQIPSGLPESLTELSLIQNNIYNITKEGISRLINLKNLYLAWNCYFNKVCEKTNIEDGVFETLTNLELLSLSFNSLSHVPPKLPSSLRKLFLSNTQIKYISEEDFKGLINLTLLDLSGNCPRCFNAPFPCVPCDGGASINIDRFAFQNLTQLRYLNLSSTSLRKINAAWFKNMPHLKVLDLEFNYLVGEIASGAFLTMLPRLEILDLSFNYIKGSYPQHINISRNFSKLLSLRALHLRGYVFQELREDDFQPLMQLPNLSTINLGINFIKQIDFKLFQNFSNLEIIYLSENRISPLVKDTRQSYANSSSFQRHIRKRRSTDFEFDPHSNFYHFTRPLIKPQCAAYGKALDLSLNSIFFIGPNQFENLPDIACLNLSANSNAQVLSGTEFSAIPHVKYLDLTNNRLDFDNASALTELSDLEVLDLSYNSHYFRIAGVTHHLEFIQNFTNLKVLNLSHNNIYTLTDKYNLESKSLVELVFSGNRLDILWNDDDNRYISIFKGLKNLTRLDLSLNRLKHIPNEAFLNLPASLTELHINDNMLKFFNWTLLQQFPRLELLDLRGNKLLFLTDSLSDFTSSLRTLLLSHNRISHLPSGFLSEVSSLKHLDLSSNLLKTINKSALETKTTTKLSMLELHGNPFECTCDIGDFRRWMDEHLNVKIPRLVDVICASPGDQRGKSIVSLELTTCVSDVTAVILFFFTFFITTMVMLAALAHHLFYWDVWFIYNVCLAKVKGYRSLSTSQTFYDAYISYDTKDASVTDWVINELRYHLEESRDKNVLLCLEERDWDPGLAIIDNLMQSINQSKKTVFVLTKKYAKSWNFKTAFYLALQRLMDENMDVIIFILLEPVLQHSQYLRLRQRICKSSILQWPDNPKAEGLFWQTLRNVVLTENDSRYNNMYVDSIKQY
Assay: TLR8 inhibition reporter assay (HEK-Blue cells, SEAP reporter, R848 stimulation)
Settings: HEK-Blue cells overexpressing human TLR8, SEAP reporter, R848 15.9 μM
From the text: TLR7/8/9 Inhibition Reporter Assays HEK-Blue™-cells (Invivogen) overexpressing human TLR7, TLR8 or TLR9 receptors were used for screening inhibitors of these receptors using an inducible SEAP (secreted embryonic alkaline phosphatase) reporter gene under the control of the IFN-β minimal promoter fused to five NF-κB and AP-1-binding sites. […]
pIC50: −log10 of the molar value.
experimentalReadout: pIC50

Answered cases to consult:
> print(dat)
                                   molecule                                  testedon  experimentalreadout  number
1  CCN(C)C1CCC(c2ccc3[nH]c(-c4cc(OC)c5ncnn5c4)c(C(C)C)c3c2)CC1 (single isomer, unassigned) [Example 65]  human TLR8 (Homo sapiens, UniProt Q9NR97)                pIC50    8.89
2  Cc1cc(-c2[nH]c3ccc(C4CN(C)C(C)(C)CO4)cc3c2C(C)C)cn2ncnc12 (single isomer, unassigned) [Example 375]  human TLR8 (Homo sapiens, UniProt Q9NR97)                pIC50    8.33
3  COCCN1CC(c2ccc3[nH]c(-c4cn5cnnc5c(C)c4C)c(C(C)C)c3c2)C1 [Example 550]  human TLR8 (Homo sapiens, UniProt Q9NR97)                pIC50    7.89

[a] Cc1cc(-c2[nH]c3ccc(C4CCC(N5CCOCC5)CC4)cc3c2C(C)C)cc(C)n1 (centres unmarked) [Example 55]
[b] Cc1cc(-c2[nH]c3ccc(CCN4CCCC4)cc3c2C(C)C)cn(C)c1=O [Example 405]
Query block: Lower pIC50: a or b ? Record your answer as the label of the chosen record.
Result block: a

[I] CCc1c(-c2ccnc(C)c2)[nH]c2ccc(CN)cc12 [Example 394]
[II] Cc1cc(-c2[nH]c3ccc(C4CCCNC4)cc3c2C(C)C)cc(C)n1 (centres unmarked) [Example 186]
Query block: Field: entry with larger pIC50 (options I / II ). Answer format: the label of the selected item.
Result block: II
